Provenance of the data: PubChem BioAssay (NCI)

- Tested on: HCC-2998 colon
- Method Summary: NCI tumour cell line growth inhibition, 48 h
For each record, write down the corresponding GI50.

Look at this compound and give its reported GI50. NC(=O)c1c(NC(=O)c2cccs2)sc2c1CCC(=O)C2
4.13 µM

Look at this compound and give its reported GI50. COC(=O)[C@]12CC[C@@H](C)[C@H](C)[C@@H]1C1=CC[C@@H]3[C@@]4(C)C(C=O)=C[C@@](C)(CO)[C@@H]4[C@H](O)C[C@@]3(C)[C@]1(C)CC2
3.13 µM

Look at this compound and give its reported GI50. CCc1nc(C)cn1C(=O)OCc1nc2nc(Cl)nc(N3CCOCC3)c2[nH]1
1.84 µM

Look at this compound and give its reported GI50. O=C(/C=C/c1ccccc1)c1cccc2ccccc12
2.65 µM

Look at this compound and give its reported GI50. COc1cccc2c1C(=O)c1c(O)c3c(c(O)c1C2=O)C[C@@](O)(C(=O)CO)CC3OC1CC(N)C(OC2CCCCO2)C(C)O1 (some centres not stated)
0.0457 µM

Look at this compound and give its reported GI50. CC1=CC(=O)N(c2cccc3c(N4C(=O)C=C(C)C4=O)cccc23)C1=O
18.4 µM

Look at this compound and give its reported GI50. COc1cc(-c2nn(-c3ccc(NC(=O)Nc4cc(C(F)(F)F)cc(C(F)(F)F)c4)cc3)cc2-c2ccncc2)ccc1Cl
2.21 µM

Look at this compound and give its reported GI50. COc1cc(C(=O)/C=C/c2cc(-c3ccc4c(c3)OCO4)n[nH]2)cc(OC)c1OC
2.02 µM

Look at this compound and give its reported GI50. CN(C)c1ccc(/C=C(\C#N)c2cc3ccccc3[nH]2)cc1
6.59 µM

Look at this compound and give its reported GI50. COc1ccc(Cn2cc(COc3cc(/C=C/C(=O)c4cc(OC)c(OC)c(OC)c4)ccc3OC)nn2)cc1
3.9 µM

Look at this compound and give its reported GI50. COC(=O)c1c[nH]c2cc(OC(C)C)c(OC(C)C)cc2c1=O
> 100 µM

Look at this compound and give its reported GI50. c1ccc(-c2[nH]ncc2-c2ccnc(-c3ccc(OCCN4CCOCC4)cc3)c2)nc1
> 25 µM
